Test: in vivo
Conditions: rat, po, 5 mg/kg

{"columns": ["moleculeSmiles", "half-life, h"],
 "data": [
  ["O=C(Cc1ccccc1)Nc1nnc(CCSCCc2nnc(NC(=O)Cc3ccccc3)s2)s1", 2.6]
]}

###

Assay: Cmax in rat at 5 mg/kg, po
Format: ADME, organism-based
Design: dose 5 mg/kg, route po
Conditions: in vivo

{"columns": ["moleculeSmiles", "Cmax (µg/mL)"],
 "data": [
  ["O=C(Cc1ccccc1)Nc1nnc(CCSCCc2nnc(NC(=O)Cc3ccccc3)s2)s1", 0.0178]
]}

###

Test: Cmax in rat at 3 mg/kg, iv
Assay type: ADME, organism-based
Parameters: dose 3 mg/kg, route iv
Details: in vivo
measuredParameter: Cmax (ng/mL)

{"columns": ["moleculeSmiles", "measuredParameter", "measurement"],
 "data": [
  ["CCCCCCN1CCC(CNC(=O)c2cccc(COCCC3CCN(c4nnc(NC(=O)Cc5ccccc5)s4)CC3)c2)CC1", "Cmax", 699]
]}

###

Biological target: Glutaminase kidney isoform, mitochondrial (Homo sapiens)
Assay: Inhibition of GLS1 (unknown origin)
Checkbox rule: IC50 lower than 200 nM = 1.0; IC50 not lower than 200 nM = 0.0.

{"columns": ["moleculeSmiles", "assignedLabel"],
 "data": [
  ["O=C(Cc1ccccc1)Nc1nnc(N2CCC(CCOCc3cccc(C(=O)N4CCN(c5cccc(F)c5)CC4)c3)CC2)s1", 0.0],
  ["CCN1CCC(NC(=O)c2ccc(COC3CCN(c4nnc(NC(=O)Cc5ccccc5)s4)CC3)cc2)CC1", 0.0],
  ["O=C(Cc1ccccc1)Nc1nnc(N2CCN(Cc3ccc(C(=O)NC4CCCC4)cc3)CC2)s1", 1.0],
  ["O=C(Cc1ccccc1)Nc1nnc(N2CCC(CCOCc3ccc(C(=O)NCC4CCN(Cc5cc(F)cc(F)c5)CC4)cc3)CC2)s1", 1.0],
  ["CN1CCC(CNC(=O)c2ccc(CN3CCN(c4nnc(NC(=O)Cc5ccccc5)s4)CC3)cc2)CC1", 0.0],
  ["O=C(Cc1ccccc1)Nc1nnc(N2CCN(Cc3cccc(C(=O)NCCN4CCCCC4)c3)CC2)s1", 0.0],
  ["CN1CCC(CNC(=O)c2cccc(CN3CCN(c4nnc(NC(=O)Cc5ccccc5)s4)CC3)c2)CC1", 0.0],
  ["Cc1ccc(NC(=O)c2ccc(CN3CCN(c4nnc(NC(=O)Cc5ccccc5)s4)CC3)cc2)cc1", 0.0]
]}

###

Recorded IC50 by entry
Target: Glutaminase kidney isoform, mitochondrial (Homo sapiens, UniProt O94925)
Sequence (O94925 whole entry): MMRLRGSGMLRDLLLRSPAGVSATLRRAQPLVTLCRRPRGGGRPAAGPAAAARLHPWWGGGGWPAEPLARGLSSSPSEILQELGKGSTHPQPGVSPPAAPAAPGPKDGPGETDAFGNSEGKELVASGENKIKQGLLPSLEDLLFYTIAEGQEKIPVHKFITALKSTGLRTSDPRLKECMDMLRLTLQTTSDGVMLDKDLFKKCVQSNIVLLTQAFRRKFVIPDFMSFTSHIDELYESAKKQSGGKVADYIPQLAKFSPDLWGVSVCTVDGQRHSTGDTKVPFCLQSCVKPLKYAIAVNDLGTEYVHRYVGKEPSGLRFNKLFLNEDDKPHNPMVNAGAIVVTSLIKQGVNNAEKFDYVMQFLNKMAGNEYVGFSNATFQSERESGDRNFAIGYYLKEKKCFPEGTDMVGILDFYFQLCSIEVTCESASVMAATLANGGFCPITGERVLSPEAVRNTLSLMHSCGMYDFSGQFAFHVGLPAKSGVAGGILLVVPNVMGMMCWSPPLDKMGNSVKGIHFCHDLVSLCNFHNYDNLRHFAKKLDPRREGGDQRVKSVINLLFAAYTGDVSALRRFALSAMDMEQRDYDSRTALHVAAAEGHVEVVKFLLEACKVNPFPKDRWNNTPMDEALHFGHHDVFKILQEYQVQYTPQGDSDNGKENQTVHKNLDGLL
Assay: Inhibition of GLS1 (unknown origin)
measuredParameter: IC50 (nM)

{"columns": ["moleculeSmiles", "measurement"],
 "data": [
  ["C=CCCC(=O)N1CCC(CNC(=O)c2cccc(COCCC3CCN(c4nnc(NC(=O)Cc5ccccc5)s4)CC3)c2)CC1", 350],
  ["CCN(CC)CCNC(=O)c1cccc(COCCC2CCN(c3nnc(NC(=O)Cc4ccccc4)s3)CC2)c1", 621],
  ["O=C(Cc1ccccc1)Nc1nnc(N2CCC(OCc3ccc(C(=O)NCCN4CCCC4)cc3)CC2)s1", 1250],
  ["O=C(Cc1ccccc1)Nc1nnc(N2CCN(Cc3ccc(C(=O)NCCN4CCCCC4)cc3)CC2)s1", 162]
]}
